Attribution: ChEMBL document CHEMBL5723379

target: Peroxisome proliferator-activated receptor alpha (Homo sapiens, UniProt Q07869); assay: Affinity On-target Cellular interaction: (Reporter gene assay (HEK293T cells)) EUB0001140a PPARA; assay type: functional, cell-based, HEK-293T; set-up: mode of action Agonist, recommended concentration 1 uM
Sequence (Q07869 whole entry): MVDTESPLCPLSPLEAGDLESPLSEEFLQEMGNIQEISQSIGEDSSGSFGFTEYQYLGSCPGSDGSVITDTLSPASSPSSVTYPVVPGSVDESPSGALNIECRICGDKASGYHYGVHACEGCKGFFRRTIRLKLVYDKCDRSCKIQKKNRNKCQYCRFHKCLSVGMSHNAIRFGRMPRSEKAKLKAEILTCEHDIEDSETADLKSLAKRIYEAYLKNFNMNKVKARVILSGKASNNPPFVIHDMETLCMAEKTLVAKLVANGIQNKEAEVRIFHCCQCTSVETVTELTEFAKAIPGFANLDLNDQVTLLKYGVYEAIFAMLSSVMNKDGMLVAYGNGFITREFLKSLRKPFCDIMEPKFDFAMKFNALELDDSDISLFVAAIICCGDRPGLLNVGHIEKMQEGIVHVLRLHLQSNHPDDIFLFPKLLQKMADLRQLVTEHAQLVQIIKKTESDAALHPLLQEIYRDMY
quantity_kind: pEC50
Expect pEC50 as a plain number equal to -log10 of the molar concentration.

Request - read-out pEC50 | tested on Peroxisome proliferator-activated receptor alpha (Homo sapiens, UniProt Q07869) | compound COc1ccc(OC(=O)N(CC(=O)O)Cc2ccc(OCCc3nc(-c4ccccc4)oc3C)cc2)cc1 [MURAGLITAZAR] 7.30

---

quantity_kind: pEC50
Expect pEC50 as a plain number equal to -log10 of the molar concentration.

Request - read-out pEC50 | tested on UniProt:P55055 | molecule Fc1ccc(-c2c3cccc(C(F)(F)F)c3nn2Cc2ccc(F)cc2Cl)cc1 [LXR-623] 5.40

---

Target: Nuclear receptor ROR-beta (Homo sapiens, UniProt Q92753)
Sequence (Q92753 whole entry): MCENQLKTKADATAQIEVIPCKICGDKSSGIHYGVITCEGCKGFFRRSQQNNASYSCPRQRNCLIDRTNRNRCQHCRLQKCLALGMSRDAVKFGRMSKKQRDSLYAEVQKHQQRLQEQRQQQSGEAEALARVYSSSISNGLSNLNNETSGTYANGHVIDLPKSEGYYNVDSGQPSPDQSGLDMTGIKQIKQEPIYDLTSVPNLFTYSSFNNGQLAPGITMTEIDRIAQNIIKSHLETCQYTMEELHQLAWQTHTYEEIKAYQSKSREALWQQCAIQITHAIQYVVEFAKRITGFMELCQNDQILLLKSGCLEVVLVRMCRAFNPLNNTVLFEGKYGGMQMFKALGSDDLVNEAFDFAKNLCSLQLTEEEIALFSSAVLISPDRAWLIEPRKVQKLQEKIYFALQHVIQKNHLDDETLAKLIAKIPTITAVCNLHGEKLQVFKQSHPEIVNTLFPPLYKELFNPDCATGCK
Test: Affinity On-target Cellular interaction: (Reporter gene assay (HEK293T cells)) EUB0001158a RORB
Assay type: functional, cell-based, HEK-293T
Design: mode of action Inverse Agonist, recommended concentration 1 uM
quantity_kind: IC50 (nM)
Respond numerically; units are nM and should not be typed.

Looking for the measured IC50 of CC(=O)Nc1nc(C)c(S(=O)(=O)Nc2ccc(C(O)(C(F)(F)F)C(F)(F)F)cc2)s1 , can you help? 1100

---

quantity_kind: pEC50
Expect pEC50 as a plain number equal to -log10 of the molar concentration.

Request - read-out pEC50 | tested on Peroxisome proliferator-activated receptor delta (Homo sapiens, UniProt Q03181) | compound O=C(O)CCCc1cc2cc(Cl)ccc2n1S(=O)(=O)c1ccc2ncsc2c1 6.05

---

biological target: Histone deacetylase 2 (Homo sapiens, UniProt Q92769); test: Affinity On-target Cellular interaction: (Inhibition of enzyme activity in 293T cells transfected with vector alone) EUB0002519a HDAC2
Sequence (Q92769 whole entry): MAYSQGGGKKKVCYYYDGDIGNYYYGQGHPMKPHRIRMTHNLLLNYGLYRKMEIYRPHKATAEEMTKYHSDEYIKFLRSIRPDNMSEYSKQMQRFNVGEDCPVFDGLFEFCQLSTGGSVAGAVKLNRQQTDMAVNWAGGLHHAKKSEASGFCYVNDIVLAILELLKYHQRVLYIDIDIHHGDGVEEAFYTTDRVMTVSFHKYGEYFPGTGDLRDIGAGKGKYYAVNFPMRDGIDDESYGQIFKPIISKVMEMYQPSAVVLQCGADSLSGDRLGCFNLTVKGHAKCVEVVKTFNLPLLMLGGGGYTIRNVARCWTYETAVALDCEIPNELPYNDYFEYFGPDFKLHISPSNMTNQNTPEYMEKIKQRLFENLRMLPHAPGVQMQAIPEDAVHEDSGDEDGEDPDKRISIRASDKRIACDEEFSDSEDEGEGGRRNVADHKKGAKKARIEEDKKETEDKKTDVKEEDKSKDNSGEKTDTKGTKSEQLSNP
quantity_kind: IC50
Phrase the answer as number then unit, nothing more needed.

Looking for the measured IC50 of Nc1ccc(-c2cccs2)cc1NC(=O)c1ccc(NC=O)cc1 , can you help? 300 nM

---

Target: Oxysterols receptor LXR-beta (Homo sapiens, UniProt P55055)
Sequence (P55055 whole entry): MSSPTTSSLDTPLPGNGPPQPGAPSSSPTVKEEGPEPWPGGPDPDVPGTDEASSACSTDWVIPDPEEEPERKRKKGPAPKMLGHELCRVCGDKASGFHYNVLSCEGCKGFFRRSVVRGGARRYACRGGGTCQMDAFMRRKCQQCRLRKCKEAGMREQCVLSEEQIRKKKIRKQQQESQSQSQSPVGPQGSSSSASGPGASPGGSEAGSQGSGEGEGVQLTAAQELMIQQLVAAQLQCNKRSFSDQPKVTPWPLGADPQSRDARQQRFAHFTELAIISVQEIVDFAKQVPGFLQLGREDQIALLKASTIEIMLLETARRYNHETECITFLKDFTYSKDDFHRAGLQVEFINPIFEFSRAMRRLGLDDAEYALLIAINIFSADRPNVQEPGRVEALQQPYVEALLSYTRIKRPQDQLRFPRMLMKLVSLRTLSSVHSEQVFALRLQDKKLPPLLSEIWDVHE
Assay: Affinity On-target Cellular interaction: (Reporter gene assay (HEK293T cells)) EUB0001167a NR1H2
Assay type: functional, cell-based, HEK-293T
Parameters: mode of action Agonist, recommended concentration 1 uM
quantity_kind: EC50

Looking for the measured EC50 of CC(=O)Oc1ccc2c(c1)[C@@]1(C)CCC[C@](C)(C(=O)OC(=O)[C@@]3(C)CCC[C@]4(C)c5cc(OC(C)=O)ccc5CC[C@@H]34)[C@@H]1CC2 [ACETYL PODOCARPIC ACID ANHYDRIDE] , can you help? 1 nM

---

Target: Oxysterols receptor LXR-alpha (Homo sapiens, UniProt Q13133)
Sequence (Q13133 whole entry): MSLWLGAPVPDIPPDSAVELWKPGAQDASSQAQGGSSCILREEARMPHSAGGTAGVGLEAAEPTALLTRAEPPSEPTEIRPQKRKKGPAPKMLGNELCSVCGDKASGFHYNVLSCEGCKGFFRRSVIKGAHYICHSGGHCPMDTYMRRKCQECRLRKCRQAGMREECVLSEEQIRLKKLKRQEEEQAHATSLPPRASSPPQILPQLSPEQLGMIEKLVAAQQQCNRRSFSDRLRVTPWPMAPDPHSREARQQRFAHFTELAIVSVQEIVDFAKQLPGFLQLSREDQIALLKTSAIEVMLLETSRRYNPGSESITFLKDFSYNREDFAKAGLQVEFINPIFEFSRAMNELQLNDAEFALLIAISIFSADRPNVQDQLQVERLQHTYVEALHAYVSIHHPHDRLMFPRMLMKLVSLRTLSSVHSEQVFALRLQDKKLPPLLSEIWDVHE
Test: Affinity On-target Cellular interaction: (Reporter gene assay (HEK293T cells)) EUB0001482aCl NR1H3
Assay type: functional, cell-based, HEK-293T
Set-up: mode of action Agonist, recommended concentration 10 uM
quantity_kind: EC50
Phrase the answer as number then unit, nothing more needed.

Looking for the measured EC50 of C[C@H](CCOc1cccc(CC(=O)O)c1)N(Cc1cccc(C(F)(F)F)c1Cl)CC(c1ccccc1)c1ccccc1 , can you help? 3.3 µM

---

target: Na(+)/citrate cotransporter (Homo sapiens, UniProt Q86YT5); test: Affinity On-target Cellular interaction: (Radiolabelled uptake assay with […], HEK293 cells) EUB0002721a SLC13A5; type: functional, cell-based; parameters: mode of action Inhibitor, recommended concentration 1 uM
Sequence (Q86YT5 whole entry): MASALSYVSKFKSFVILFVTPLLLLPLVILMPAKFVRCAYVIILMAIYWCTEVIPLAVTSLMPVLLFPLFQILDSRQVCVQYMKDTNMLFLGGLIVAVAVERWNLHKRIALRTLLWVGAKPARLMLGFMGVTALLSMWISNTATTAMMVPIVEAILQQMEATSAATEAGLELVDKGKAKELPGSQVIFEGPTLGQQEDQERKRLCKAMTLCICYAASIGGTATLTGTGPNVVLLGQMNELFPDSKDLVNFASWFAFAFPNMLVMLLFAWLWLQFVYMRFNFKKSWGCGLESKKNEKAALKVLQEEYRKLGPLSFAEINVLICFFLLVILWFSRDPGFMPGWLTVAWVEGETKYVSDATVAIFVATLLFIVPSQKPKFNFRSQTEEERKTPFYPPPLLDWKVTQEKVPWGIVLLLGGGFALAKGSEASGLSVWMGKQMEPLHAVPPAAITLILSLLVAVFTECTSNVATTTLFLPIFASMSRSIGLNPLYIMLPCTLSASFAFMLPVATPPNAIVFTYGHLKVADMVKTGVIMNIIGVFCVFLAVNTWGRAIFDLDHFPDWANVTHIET
quantity_kind: IC50

Looking for the measured IC50 of O=C(NCc1ccc(Cl)cc1)C1CCN(S(=O)(=O)c2cc(Cl)cc(Cl)c2)CC1 , can you help? > 100 µM

---

target: Monoacylglycerol lipase ABHD6 (Homo sapiens)
Sequence (Q9BV23 whole entry): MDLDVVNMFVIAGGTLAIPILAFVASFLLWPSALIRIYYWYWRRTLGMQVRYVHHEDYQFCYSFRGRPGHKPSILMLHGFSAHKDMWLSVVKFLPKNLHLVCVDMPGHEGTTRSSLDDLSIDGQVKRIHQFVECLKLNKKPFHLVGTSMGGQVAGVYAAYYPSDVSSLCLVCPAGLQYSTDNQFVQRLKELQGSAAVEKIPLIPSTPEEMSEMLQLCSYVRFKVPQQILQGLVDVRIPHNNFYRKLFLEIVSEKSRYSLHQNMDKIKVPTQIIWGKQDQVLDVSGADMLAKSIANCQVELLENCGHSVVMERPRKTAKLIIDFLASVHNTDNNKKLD
quantity_kind: pIC50
Expect pIC50 as a plain number equal to -log10 of the molar concentration.

Looking for the measured pIC50 of O=C(c1cccc(-c2ccc(-c3cn(C(=O)N4CCCCC4c4ccccc4)nn3)cc2)c1)N1CCCCC1 (stereo unspecified) , can you help? 9.68

---

target: Dipeptidyl peptidase 2 (Homo sapiens, UniProt Q9UHL4); test: Affinity On-target Cellular interaction: (inhibition of fluorogenic substrate cleavage, U937 cell) EUB0002750aCl DPP7; assay type: functional, cell-based, U-937; set-up: mode of action Inhibitor, recommended concentration 1 uM
quantity_kind: IC50
Phrase the answer as number then unit, nothing more needed.

Looking for the measured IC50 of N[C@@H](CCNCc1ccc(Cl)cc1)C(=O)N1CCCCC1 , can you help? 0.21 nM

---

Target: Vitamin D3 receptor (Homo sapiens, UniProt P11473)
Sequence (P11473 whole entry): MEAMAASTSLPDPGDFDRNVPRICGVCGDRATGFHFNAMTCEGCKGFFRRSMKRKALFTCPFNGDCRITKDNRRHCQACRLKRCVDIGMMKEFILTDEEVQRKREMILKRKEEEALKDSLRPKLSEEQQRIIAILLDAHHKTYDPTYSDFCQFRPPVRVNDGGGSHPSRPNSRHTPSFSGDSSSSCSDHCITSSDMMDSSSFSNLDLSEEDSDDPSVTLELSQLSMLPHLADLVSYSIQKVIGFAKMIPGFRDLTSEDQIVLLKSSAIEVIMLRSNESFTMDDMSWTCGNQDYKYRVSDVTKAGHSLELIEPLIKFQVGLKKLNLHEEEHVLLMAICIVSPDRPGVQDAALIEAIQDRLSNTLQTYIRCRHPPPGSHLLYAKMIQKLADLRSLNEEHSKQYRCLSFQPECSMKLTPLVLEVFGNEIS
Assay: Affinity On-target Cellular interaction: (Reporter gene assay (HEK293T cells)) EUB0000583a VDR
Type: functional, cell-based, HEK-293T
Parameters: mode of action Agonist, recommended concentration 1 uM
quantity_kind: EC50

Looking for the measured EC50 of C=C1/C(=C\C=C2/CCC[C@]3(C)[C@@H]([C@H](C)/C=C/[C@H](C)C(C)C)CC[C@@H]23)C[C@@H](O)C[C@@H]1O , can you help? 960 nM
